Molecular target: strychnine insensitive glycine binding site located on the NMDA receptor complex (Rattus norvegicus, UniProt P35439)
Assay: affinity for strychnine insensitive glycine binding site located on the NMDA receptor complex (procedure of Kishimoto H. et al)
Where a name gives a salt, the structure may show the parent alone.
The threshold is 9 nM. Values of Ki beneath it are tagged satisfied; values meeting or exceeding it are tagged not satisfied.

Some solved cases for reference:
O=C(/C=C/c1c(C(=O)O)[nH]c2cc(Cl)cc(Cl)c12)Nc1ccc(NC(=O)Nc2ccccc2)cc1 [Example 24]; not satisfied
O=C(/C=C/c1c(C(=O)O)[nH]c2cc(Cl)cc(Cl)c12)Nc1ccc(NC(=O)NC2CC2)cc1 [Example 50, sodium salt]; satisfied
O=C(/C=C/c1c(C(=O)O)[nH]c2cc(Cl)cc(Cl)c12)Nc1ccc(NC(=O)Nc2cccnc2)cc1 [Example 51]; satisfied

Query: Report whether reported Ki is lower than 9 nM (strictly) for NC(=O)NCc1cccc(NC(=O)/C=C/c2c(C(=O)O)[nH]c3cc(Cl)cc(Cl)c23)c1 [Example 34]
Reply: satisfied

Query: Could you do the same for NC(=O)Nc1ccc(NC(=O)/C=C/c2c(C(=O)O)[nH]c3cc(Cl)cc(Cl)c23)cc1 [Example 21] , please?
Reply: satisfied

Query: Could you do the same for O=C(/C=C/c1c(C(=O)O)[nH]c2cc(Cl)cc(Cl)c12)Nc1ccc(CNC(=O)Nc2ccccc2)cc1 [Example 16] , please?
Reply: not satisfied

Origin of values: patent US5919811A
